Hey, just so you know, these numbers are from the supplement of paper PMC10567573.

B1: ANKRD17 (parent)
chain: EMVRFLLEAGADQEHKTDEMHTAL

Variants of: B1
Assay: protein stability index of a GFP-peptide fusion (GPS, HEK-293T) (PSI 1-6); higher = more stable;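 note: lentivirally expressed fusions sorted by FACS into six bins by GFP to DsRed ratio, PSI derived from sequencing read proportions per bin multiplied by bin number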
Details: c terminus: a fixed tail appended
Overview of reported protein stability index across a group of variants:
Provide a numeric answer; units are not to be included.

Known results for variants:
| Mutation List | protein stability index |
| --- | --- |
| Q13D | 3.77 |
| E19Y | 1.6 |
| E1W | 2.05 |
| G10D | 3.13 |
| M2K | 4.64 |

For L24A the variant record lists protein stability index as 2.75

// sample D12P , its protein stability index was 2.25

Entry L6K , protein stability index reported as 4.7

// protein stability index lookup, variant = R4D , result: 4.17

protein stability index recorded for this variant, D12H , is 1.94

The variant listed as L7W has a reported protein stability index of 3.26

The variant listed as G10T shows protein stability index equal to 2.27
